Target: T1, human Gro-beta (human, UniProt P19875 35-107)
T1 sequence (looked up): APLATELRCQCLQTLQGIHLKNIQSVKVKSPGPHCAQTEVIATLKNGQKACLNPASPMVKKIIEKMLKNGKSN
Experiment: cell-based or functional assay
property.name: FLIPR IC50 (µg/mL)
Give just the number in µg/mL; leave the unit off.

Per the records, this binder ( 2X352.3 (antibody, IgG1, V domains shown) VH: QIQLVQSGPELKKPGETVKISCKASGYTLTYYGIHWVTQTPGKGLNWMGWINTNTGEPTYVEEFKGRFAFSLETSASTAYLQITDLKNEDTATYFCAKATYDGYSDYWGQGTTLTVSS VL: DIQMTQSPASLSVSVGESVTITCRASENIYSNLAWYQQKQGKSPQLLVYDATNLAHGVPSRFSGSGSGTQFSLRINSLQSEDFGSYYCQHFWGTPLTFGAGTRLELK ) has FLIPR IC50 equal to 1.12
